Consider the following compounds; for each one, report its IC50.
System: VZV strain Ellen
Experiment: VZV Antiviral (ELISA) Assay in human foreskin fibroblast cells
Format: cell-based, varicella-zoster virus
Conditions: Human alphaherpesvirus 3, Fibroblast, read-out: IC50 (ug/ml) VZV

compound: COc1ccc(NC(=S)Nc2ccc(NC(=O)c3cccc(F)c3)cc2)cc1Cl [Example 822]
IC50: > 10 µg/mL
//
compound: COc1ccc(NC(=S)Nc2ccc(NC(=O)c3ccccc3F)cc2)cc1I [Example 810]
IC50: > 7.5 µg/mL
//
compound: O=C(O)c1cccc(NC(=S)Nc2ccc(NC(=O)c3ccccc3F)cc2)c1 [Example 963]
IC50: > 10 µg/mL
//
compound: COc1ccc(C(=O)Nc2ccc(NC(=S)Nc3ccc(OC)c(Cl)c3)cc2)cc1 [Example 820]
IC50: > 10 µg/mL

Count: 6. Required value per item: IC50.
1. COc1ccc(NC(=S)Nc2ccc(NC(=O)c3ccccc3OC)cc2)cc1Cl [Example 818]
2. COc1ccc(C(=O)Nc2ccc(NC(=S)Nc3cc(Br)c(OC)cc3OC)cc2)cc1 [Example 830]
3. CC(NC(=S)Nc1ccc(NC(=O)c2cc3ccccc3cn2)cc1)c1cc2ccccc2o1 (stereo not shown) [Example 985]
4. CC(NC(=S)Nc1ccc(NC(=O)c2ccc3ncccc3c2)cc1)c1ccc(F)cc1 (stereo not shown) [Example 990]
5. Cc1ccc([C@@H](C)NC(=S)Nc2ccc(NC(=O)c3ccccc3F)cc2)cc1 [Example 1012]
6. CC(O)c1ccc(NC(=S)Nc2ccc(NC(=O)c3ccccc3F)cc2)cc1Cl (stereo not shown) [Example 865]

> 10 µg/mL
> 10 µg/mL
0.035 µg/mL
3.5 µg/mL
> 7.5 µg/mL
> 10 µg/mL

Provide each entry's IC50 from the list below.
1. Cc1ccc(NC(=S)Nc2ccc(NC(=O)c3ccccc3F)cc2)cc1C(F)(F)F [Example 1003]
2. CC(NC(=S)Nc1ccc(NC(=O)c2ccc(F)cc2)cc1)c1ccc(F)cc1 (stereo not shown) [Example 801]
3. CSc1ccc(NC(=S)Nc2ccc(NC(=O)c3c(F)cccc3F)cc2)cc1Cl [Example 848]
4. CC(NC(=S)Nc1ccc(NC(=O)c2cccc(F)c2)cc1)c1ccc(F)cc1 (stereo not shown) [Example 800]
5. CC(NC(=S)Nc1ccc(NC(=O)c2cc3ccccc3o2)cc1)c1ccc(F)cc1 (stereo not shown) [Example 980]

["> 10 µg/mL", "> 7.5 µg/mL", "1.3 µg/mL", "> 7.5 µg/mL", "0.15 µg/mL"]

---

Tested on: HCMV recombinant mutant virus (RV145)
Assay: microbe, parasite or virus in culture
Assay type: cell-based, human cytomegalovirus
Conditions: HCMV
Give measured IC50 ug/ml HCMV for each item. Keep answers brief.
Numbers only, in µg/mL.

# batch size: 4; output IC50 ug/ml HCMV per entry
1. COc1cccc(C(=O)Nc2ccc(NC(=S)Nc3cc(Cl)c(OC)cc3OC)cc2)c1
2. CC(NC(=S)Nc1ccc(NC(=O)c2ccccc2F)cc1)c1ccc(N(C)C)cc1 (stereo not shown)
3. COc1ccccc1C(=O)Nc1ccc(NC(=S)N[C@@H](C)c2ccc(Br)cc2)cc1
4. Cc1ccccc1C(=O)Nc1ccc(NC(=S)Nc2ccc(N(C)C)c(Cl)c2)cc1

1. 5
2. 3.2
3. 4.9
4. 2
